Known growth inhibition of a selection of compounds
# run_description: NCI Yeast Anticancer Drug Screen. Data for the bub3 strain (AID 167)
# test_context: S. cerevisiae bub3 mutant strain, at 50.0 µM, active compounds read high
The panel holds about 79,000 compounds, 15% with a hit somewhere; the sample as a whole holds those more often.
quantity_name: growth inhibition (%)

compound | quantity_name | unit_string | observed
Cc1cccc(CC(O)c2ccc(C=O)cc2)n1 (configuration not stated) | growth inhibition | % | 14.4
CCCCNC(=S)/N=C/c1c(O)c2ccccc2[nH]c1=O | growth inhibition | % | 3.9
Nc1nc(N)c2cc(N3CCCC3c3ccc(Cl)cc3)ccc2n1 (configuration not stated) | growth inhibition | % | 91.6
Cc1cc(N)cc(C)n1 | growth inhibition | % | 11.7
CCCOC(=O)c1ccccc1Cl | growth inhibition | % | 11.6
O=[N+]([O-])c1ccc(N/N=C/C2CC=CCC2)c([N+](=O)[O-])c1 (configuration not stated) | growth inhibition | % | -5.65
Cc1nc(C)c(N2CCN(S(N)(=O)=O)CC2)c(=O)[nH]1 | growth inhibition | % | 3.4
